Measured MIC accompanies every entry in the list below.
Test system: vancomycin-intermediate Staphylococcus aureus (VISA)
protocol.text: Broth microdilution MIC (Example 12)
Assay type: cell-based
condition.info: S. aureus NRS 27
Please respond with the number in mg/L and leave the unit unwritten.

// solved cases for MIC follow
CC(=O)NC[C@H]1CN(c2ccc(N3CCOCC3)c(F)c2)C(=O)O1	2
C[C@H]1COc2c(N3CCN(C)CC3)c(F)cc3c(=O)c(C(=O)O)cn1c23	8

Which MIC is listed for CN[C@H](CC(C)C)C(=O)N[C@H]1C(=O)N[C@@H](CC(N)=O)C(=O)N[C@H]2C(=O)N[C@H]3C(=O)N[C@H](C(=O)N[C@H](C(=O)O)c4cc(O)cc(O)c4-c4cc3ccc4O)[C@H](O)c3ccc(c(Cl)c3)Oc3cc2cc(c3O[C@@H]2O[C@H](CO)[C@@H](O)[C@H](O)[C@H]2O[C@H]2C[C@](C)(N)[C@H](O)[C@H](C)O2)Oc2ccc(cc2Cl)[C@H]1O ?
2

----------
protocol.text: Particle size distribution of BisEDT samples vs processing conditions
Format: physicochemical
condition.info: particle size distribution of BisEDT samples
reported.property: D(50) (μm)
Please respond with the number in μm and leave the unit unwritten.

// solved cases for D(50) follow
C1C[S][Bi]([S]CC[S][Bi]2[S]CC[S]2)[S]1 [Sample 9]	1.0
C1C[S][Bi]([S]CC[S][Bi]2[S]CC[S]2)[S]1 [Sample 1]	2.4
C1C[S][Bi]([S]CC[S][Bi]2[S]CC[S]2)[S]1 [Sample 13]	0.98
C1C[S][Bi]([S]CC[S][Bi]2[S]CC[S]2)[S]1 [Sample 4]	1.48
C1C[S][Bi]([S]CC[S][Bi]2[S]CC[S]2)[S]1 [Sample 10]	0.88

Which D(50) is listed for C1C[S][Bi]([S]CC[S][Bi]2[S]CC[S]2)[S]1 [Sample 15] ?
0.72

Which D(50) is listed for C1C[S][Bi]([S]CC[S][Bi]2[S]CC[S]2)[S]1 [Sample 5] ?
0.72

Which D(50) is listed for C1C[S][Bi]([S]CC[S][Bi]2[S]CC[S]2)[S]1 [Sample 2] ?
1.7

Which D(50) is listed for C1C[S][Bi]([S]CC[S][Bi]2[S]CC[S]2)[S]1 [Sample 8] ?
1.0

Which D(50) is listed for C1C[S][Bi]([S]CC[S][Bi]2[S]CC[S]2)[S]1 [Sample 12] ?
1.2

----------
Measured MIC90 accompanies every entry in the list below.
System: Gram-positive aerobic bacteria (S. aureus, MRSA, CA-MRSA)
protocol.text: MIC90 against 150 clinical isolates of Gram-positive aerobic bacteria
Format: cell-based
condition.info: S. aureus (50 isolates), CA-MRSA

// solved cases for MIC90 follow
CN[C@H](CC(C)C)C(=O)N[C@H]1C(=O)N[C@@H](CC(N)=O)C(=O)N[C@H]2C(=O)N[C@H]3C(=O)N[C@H](C(=O)N[C@H](C(=O)O)c4cc(O)cc(O)c4-c4cc3ccc4O)[C@H](O)c3ccc(c(Cl)c3)Oc3cc2cc(c3O[C@@H]2O[C@H](CO)[C@@H](O)[C@H](O)[C@H]2O[C@H]2C[C@](C)(N)[C@H](O)[C@H](C)O2)Oc2ccc(cc2Cl)[C@H]1O	1 µg/mL
C[C@@H](O)[C@H]1C(=O)N2C(C(=O)O)=C(SCCN=CN)C[C@H]12	2 µg/mL
CC(C)(O/N=C(\C(=O)N[C@@H]1C(=O)N2C(C(=O)[O-])=C(C[n+]3ccccc3)CS[C@H]12)c1csc(N)n1)C(=O)O	>64 µg/mL

Now look at this entry.
Which MIC90 is listed for CC(=O)NC[C@H]1CN(c2ccc(N3CCOCC3)c(F)c2)C(=O)O1 ?
4 µg/mL
